The reported measurements were obtained from BindingDB's records for patent WO2022098807.

molecular target: Mitogen-activated protein kinase kinase kinase kinase 1 (Homo sapiens); assay: HPK1-SLP76 TR-FRET ASSAY
Sequence (Q92918 whole entry): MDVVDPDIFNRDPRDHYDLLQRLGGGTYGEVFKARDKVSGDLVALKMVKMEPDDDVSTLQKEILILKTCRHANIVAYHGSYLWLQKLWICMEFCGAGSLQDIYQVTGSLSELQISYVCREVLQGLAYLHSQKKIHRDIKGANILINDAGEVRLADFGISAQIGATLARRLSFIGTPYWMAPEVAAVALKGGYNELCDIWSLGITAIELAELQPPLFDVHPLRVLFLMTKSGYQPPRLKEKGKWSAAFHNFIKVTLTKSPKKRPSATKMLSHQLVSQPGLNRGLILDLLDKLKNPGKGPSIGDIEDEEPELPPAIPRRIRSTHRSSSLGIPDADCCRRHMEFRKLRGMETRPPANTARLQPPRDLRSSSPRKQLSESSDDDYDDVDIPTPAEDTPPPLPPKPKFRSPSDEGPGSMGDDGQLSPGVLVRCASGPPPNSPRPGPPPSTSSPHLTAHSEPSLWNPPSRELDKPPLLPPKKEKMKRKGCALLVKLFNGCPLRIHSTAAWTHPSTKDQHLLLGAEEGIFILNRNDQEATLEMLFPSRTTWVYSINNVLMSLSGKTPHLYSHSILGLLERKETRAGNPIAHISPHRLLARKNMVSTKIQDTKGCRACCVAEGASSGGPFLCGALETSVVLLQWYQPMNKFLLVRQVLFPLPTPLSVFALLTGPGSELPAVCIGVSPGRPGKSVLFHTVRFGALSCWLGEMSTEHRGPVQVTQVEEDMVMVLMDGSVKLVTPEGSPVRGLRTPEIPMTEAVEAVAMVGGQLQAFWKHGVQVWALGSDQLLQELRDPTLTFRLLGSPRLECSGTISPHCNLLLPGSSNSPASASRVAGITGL
observation type: IC50 (nM)
Just the number in nM, nothing appended.

Use the examples below as a reference point.
> print(dat)
                                   molecule                            assayed.target  endpoint.value
1  Cc1c(-c2cc3nc(Nc4cnn(C56CC(C(C)(C)O)(C5)C6)c4)ncc3c(N)c2F)cnc2c1NCCO2 [WO2022098807, Example 2-46]  Mitogen-activated protein kinase kinase kinase kinase 1 (Homo sapiens)            0.05
2  Cc1c(-c2cc3nc(Nc4cnn(CC(F)F)c4)ncc3c(N)c2F)cnc2c1NCCO2 [WO2022098807, Example 2-32]  Mitogen-activated protein kinase kinase kinase kinase 1 (Homo sapiens)            0.05

Here's the next entry for you.
### Prompt Please look up its IC50: Cc1c(-c2cc3nc(Nc4cc5n(n4)CCN(C(C)C)C(=O)C5)ncc3c(N)c2F)cnc2c1NCCO2 [WO2022098807, Example 2-20]
### Response 0.06
